System: DMS-114
experiment: NCI tumour cell line growth inhibition, 48 h
Calls of active or inactive are those of the source. Rule as the data show it: active = GI50 up to about 1.1 µM and inactive = higher.
Hello, when you answer, please use one of the following outcomes: active, inactive

Here are 6 compounds together with their reported answers.
| compound | group |
| --- | --- |
| C[C@]12C/C(=C/O)C(=O)C(O)=C1CC[C@@H]1C2CC[C@@]2(C)C1CC[C@@H]2O (stereo not given in full) | inactive |
| COc1cc(CC2c3cc(OC)c(OC)cc3CCN2C)c(Oc2cc3c(cc2OC)-c2c(OC)c(OC)c(OC)c4c2C(C3)N(C)CC4)cc1OC (stereo not given) | inactive |
| CC1CC(=O)Nc2ccccc2N1C(=O)CN1CCC(CCCCN(C)C)CC1 (stereo not given) | inactive |
| COc1ccc2c(c1)c1c(C)c3cnccc3c(C)c1n2CCCN | active |
| C=C1CCC(OC(C)=O)C2(C)C(OC(C)=O)CC3OC3(C)C2C(OC(C)=O)C2C(C)C(=O)OC2C1Cl (stereo not given) | inactive |
| CN(C)CCCNc1ccc2ncn3c4ccc(O)cc4c(=O)c1c23 | active |

# fetch the recorded call for "N#Cc1ccc(/C=C(/C(=O)c2ccccc2)c2ccccc2)cc1" here
inactive

# fetch the recorded call for "N#C/C(=C\c1ccccc1O)C(N)=O" here
inactive

# fetch the recorded call for O=C1CC2(CCC3=C(O2)c2ccccc2NC(=O)C3)C(=O)c2ccccc2N1 (stereo not given) here
inactive

# fetch the recorded call for "COc1ccc(-c2cc(O)c3cc4c(cc3n2)OCO4)c(OC)c1OC" here
inactive
